- Protocol Summary: Stability constants of complexes with zinc ions by pH-metric titration, Bjerrum method
- Assay type: physicochemical
- Condition Info: Table 5; aqueous solution, CL = 0.02M; M^z+/L = 1:6; ion strength 0.5 (KNO3), 22° C.
Answer each item with its documented The first stability constant, lgK1 (zinc ions).
One number for each entry.

{"Smiles String": "O=C(CCC(=O)NCCc1cnc[nH]1)NCCc1cnc[nH]1", "Value": 5.40}

Parameters: items (list). Returns: The first stability constant, lgK1 (zinc ions) for each item.
1. O=C(CCCC(=O)NCCc1ncc[nH]1)NCCc1ncc[nH]1
2. O=C(NCCc1cnc[nH]1)C(=O)NCCc1cnc[nH]1
3. O=C(CCCC(=O)NCCc1cnc[nH]1)NCCc1cnc[nH]1
4. O=C(CCCC(=O)NCCc1nccs1)NCCc1nccs1
5. O=C(NCCc1c[nH]cn1)c1cccc(C(=O)NCCc2c[nH]cn2)c1
6. O=C(CCCCC(=O)NCCc1cnc[nH]1)NCCc1cnc[nH]1

Resp:
1: 5.50; 2: 4.52; 3: 5.05; 4: 6.25; 5: 5.62; 6: 5.46

Req: Any idea what its The first stability constant, lgK1 (zinc ions) is? The molecule is `O=C(CC(=O)NCCc1cnc[nH]1)NCCc1cnc[nH]1`
Resp: 4.84

Reference source: patent US20230203016A1
